Test system: Klebsiella aerogenes
EXPERIMENTAL_DETAILS: Antibacterial activity against Enterobacter aerogenes ATCC 35029 after 18 hrs by broth microdilution method
Format: functional
CONDITIONS_USED: ATCC 35029, 18 h
METRIC_NAME: MIC

COMPOUND: O=C(CCC(=O)N(CCCCNC(=O)c1cccc(O)c1O)CCCNC(=O)c1cccc(O)c1O)NCCCCCN(O)C(=O)CCC(=O)N1CCN(c2cc3c(cc2F)c(=O)c(C(=O)O)cn3C2CC2)CC1
SUBJECT_OF_TEST: Klebsiella aerogenes
MIC: > 128 µM
//
COMPOUND: O=C(CCC(=O)N(CCCCNC(=O)c1cccc(O)c1O)CCCNC(=O)c1cccc(O)c1O)NCCCCCN(O)C(=O)CCC(=O)N[C@H](C(=O)N[C@@H]1C(=O)N2C(C(=O)O)=C(Cl)CC[C@H]12)c1ccccc1
SUBJECT_OF_TEST: Klebsiella aerogenes
MIC: > 128 µM
//
COMPOUND: O=C(O)c1cn(C2CC2)c2cc(N3CCNCC3)c(F)cc2c1=O
SUBJECT_OF_TEST: Klebsiella aerogenes
MIC: < 0.015 µM
//
COMPOUND: N[C@@H](C(=O)N[C@@H]1C(=O)N2C(C(=O)O)=C(Cl)CC[C@H]12)c1ccccc1 [LORACARBEF ANHYDROUS]
SUBJECT_OF_TEST: Klebsiella aerogenes
MIC: > 128 µM

## Task Give its MIC value. Item: "O=C(O)CCC(=O)N(O)CCCCCNC(=O)CCC(=O)N(CCCCNC(=O)c1cccc(O)c1O)CCCNC(=O)c1cccc(O)c1O"
## Result > 128 µM

###

Tested on: Acinetobacter baumannii
EXPERIMENTAL_DETAILS: Antibacterial activity against Acinetobacter baumannii ATCC 17961 after 18 hrs by broth microdilution method
Type: functional
CONDITIONS_USED: ATCC 17961, 18 h
METRIC_NAME: MIC

For orientation, consider the following solved cases.
MOLECULE: O=C(CCC(=O)N(CCCCNC(=O)c1cccc(O)c1O)CCCNC(=O)c1cccc(O)c1O)NCCCCCN(O)C(=O)CCC(=O)N1CCN(c2cc3c(cc2F)c(=O)c(C(=O)O)cn3C2CC2)CC1
RESULT: > 128 µM
--
MOLECULE: N[C@@H](C(=O)N[C@@H]1C(=O)N2C(C(=O)O)=C(Cl)CC[C@H]12)c1ccccc1 [LORACARBEF ANHYDROUS]
RESULT: > 128 µM

We now examine a further molecule.
## Task What value of measured MIC is listed for "O=C(O)CCC(=O)N(O)CCCCCNC(=O)CCC(=O)N(CCCCNC(=O)c1cccc(O)c1O)CCCNC(=O)c1cccc(O)c1O" ?
## Result > 128 µM
